Test system: human plasma
experimental-details: Measurement of intrinsic coagulation time (APTT) in vitro
Assay type: biochemical
Kindly state Concentration required to double coagulation time for each of the entries shown.
Give bare numbers, in µM.

Consider the following items and state reported Concentration required to double coagulation time for each.
1. O=C(O)COCC12CN(S(=O)(=O)c3ccc4cc(Cl)ccc4c3)CC(=O)N1CC1(CCN(c3ccncc3)CC1)O2 (stereo not shown)
2. COCC12CN(S(=O)(=O)c3cc4ccc(Cl)cc4s3)CC(=O)N1CC1(CCN(c3ccncc3)CC1)N2 (stereo not shown)
3. NCC12CN(S(=O)(=O)c3ccc4cc(Cl)ccc4c3)CC(=O)N1CC1(CCN(c3ccncc3)CC1)O2 (stereo not shown)
4. COCC12CN(S(=O)(=O)C=Cc3ccc(Cl)s3)CC(=O)N1CC1(CCN(c3ccncc3)CC1)N2C (stereo not shown)
5. CC(C)OC(=O)C12CN(S(=O)(=O)c3ccc4cc(Cl)ccc4c3)CC(=O)N1CC1(CCN(c3ccncc3)CC1)O2 (stereo not shown)
6. CC12CN(S(=O)(=O)c3ccc4cc(Cl)ccc4c3)CC(=O)N1CC1(CCN(c3ccncc3)CC1)O2 (stereo not shown)
7. O=C1CN(S(=O)(=O)C=Cc2ccc(Cl)s2)CC2OC3(CCN(c4ccncc4)CC3)CN12 (stereo not shown)
8. COCC12CN(S(=O)(=O)c3cc4ccc(Cl)cc4s3)CC(=O)N1CC1(CCN(c3ccncc3)CC1)O2 (stereo not shown)

0.43
0.16
0.18
0.18
0.90
0.36
0.22
0.18

// for each compound in input: emit Concentration required to double coagulation time
1. COCC12CN(S(=O)(=O)c3cc4cc(Cl)ccc4o3)CC(=O)N1CC1(CCN(c3ccncc3)CC1)N2C (stereo not shown)
2. O=C1CN(S(=O)(=O)c2cc3ccc(Cl)cc3s2)CC2NC3(CCN(c4ccncc4)CC3)CN12 (stereo not shown)
3. COCCOC(=O)C12CN(S(=O)(=O)c3ccc4cc(Cl)ccc4c3)CC(=O)N1CC1(CCN(c3ccncc3)CC1)O2 (single isomer, unassigned; (-))
4. COCC12CN(S(=O)(=O)c3ccc4cc(Cl)ccc4c3)CC(=O)N1CC1(CCN(c3cc[n+](C)cc3)CC1)O2.Cc1ccc(S(=O)(=O)[O-])cc1 (stereo not shown)
5. COCC12CN(S(=O)(=O)c3ccc4ccccc4c3)CC(=O)N1CC1(CCN(c3ccncc3)CC1)O2 (stereo not shown)
6. O=C1CN(S(=O)(=O)c2ccc3cc(Cl)ccc3c2)CC2OC3(CCN(c4ccncc4)CC3)CN12 (stereo not shown)

0.35
0.17
0.20
0.62
0.99
0.29

List the reported Concentration required to double coagulation time of each compound below.
1. COCC12CN(S(=O)(=O)c3cc4cc(Cl)ccc4o3)CC(=O)N1CC1(CCN(c3ccncc3)CC1)N2 (stereo not shown)
2. COCC12CN(S(=O)(=O)C3=Cc4ccc(Cl)cc4OC3)CC(=O)N1CC1(CCN(c3ccncc3)CC1)O2 (stereo not shown)

1: 0.27; 2: 0.22
